Each entry below lists one item and its recorded pIC50 value.
target: human MGL from HeLa cells (Homo sapiens (Human), UniProt Q99685); assay: MGL in vitro activity assay: cleavage of [glycerol-1,3-3H]-oleyl glycerol, activated carbon filtration; settings: 300 nM [Glycerol-1,3-3H]-oleyl glycerol, endogenously expressed MGL from HeLa cells, one hour incubation
Sequence (Q99685 whole entry): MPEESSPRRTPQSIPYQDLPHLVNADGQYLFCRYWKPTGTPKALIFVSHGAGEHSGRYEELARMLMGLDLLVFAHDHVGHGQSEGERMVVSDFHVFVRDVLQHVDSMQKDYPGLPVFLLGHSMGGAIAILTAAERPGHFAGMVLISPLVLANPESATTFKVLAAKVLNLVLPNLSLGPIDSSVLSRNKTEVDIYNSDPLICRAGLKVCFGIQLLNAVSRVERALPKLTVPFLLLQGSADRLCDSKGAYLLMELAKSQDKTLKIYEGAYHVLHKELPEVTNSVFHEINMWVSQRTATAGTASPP
By convention, pIC50 is the negative base-10 log of a molar concentration.

| molecule | readout.number |
| --- | --- |
| C[C@H]1c2nn(C)c(-c3cc(C(F)(F)F)nn3C)c2CCN1C(=O)c1cccc2c1ccn2C [Example 45] | 8.96 |
| COc1cccc(C(=O)N2CCc3c(nn(C)c3-c3cc(C(F)(F)F)nn3C)[C@@H]2C)c1 [Example 38] | 7.14 |
| COc1cc(C(=O)N2CCc3c(nn(C)c3-c3cc(C(F)(F)F)n(C)n3)[C@@H]2C)c2ccccc2n1 [Example 20] | 8.09 |
| Cn1nc(C(F)(F)F)cc1-c1c2c(nn1C)[C@@H]1CCC[C@H](C2)N1C(=O)c1cnc2cccc(F)c2c1 [Example 83] | 7.40 |
| Cc1cc2ncsc2cc1C(=O)N1CCc2c(nn(C)c2-c2cc(C(F)(F)F)nn2C)[C@@H]1C [Example 134] | 7.06 |
| COc1ccc(C(=O)N2CCc3c(nn(C)c3-c3cc(C(F)(F)F)nn3C)[C@@H]2C)c2cccnc12 [Example 14] | 7.82 |
| Cc1cc(C(=O)N2CCc3c(nn(C)c3-c3cnn(C)c3C(F)(F)F)[C@@H]2C)cc(-n2nccn2)c1 [Example 53] | 6.09 |
| C[C@H]1c2nn(C)c(-c3cc(C(F)(F)F)nn3C)c2CCN1C(=O)c1ccc2ncsc2c1 [Example 56] | 7.59 |
| Cc1cc(C(=O)N2CCc3c(nn(C)c3-c3cnn(C)c3C(F)(F)F)[C@@H]2C)c2cc(F)ccc2n1 [Example 34] | 5.66 |
| Cc1nc2ccccc2cc1C(=O)N1CCc2c(nn(C)c2-c2cc(C(F)(F)F)nn2C)[C@@H]1C [Example 13] | 6.66 |

pIC50 recorded for this molecule, C[C@H]1c2nn(C)c(-c3cc(C(F)(F)F)n(C)n3)c2CCN1C(=O)c1cnn2cccc(F)c12 [Example 19] , is 7.72

====

Molecular target: human MGL from HeLa cells (Homo sapiens (Human))
Assay: MGL in vitro activity assay: cleavage of [glycerol-1,3-3H]-oleyl glycerol, activated carbon filtration
Conditions: 300 nM [Glycerol-1,3-3H]-oleyl glycerol, endogenously expressed MGL from HeLa cells, one hour incubation
Source text: The assay used to measure the in vitro activity of MGL is adapted from the assay used for another serine hydrolase (FAAH) described in Wilson et al., 2003 (A high-throughput-compatible assay for determining the activity of fatty acid amide hydrolase. Wilson S J, Lovenberg T W, Barbier A J. Anal Biochem. 2003 Jul. 15; 318(2):270-5.). […]
Each entry below lists one item and its recorded log10 IC50 value.
A value of 2 here means IC50 of 100 in nM, since values are log10.

Completed entries (count: 2):
| smiles.record | endpoint | readout.number |
| --- | --- | --- |
| COc1cccc(C(=O)N2CCc3c(nn(C)c3-c3cnn(C)c3C(F)(F)F)[C@@H]2C)c1Cl | log10 IC50 | 2.95 |
| C[C@H]1c2nn(C)c(-c3ccn(C(F)F)n3)c2CCN1C(=O)c1ccc2ncccc2c1 | log10 IC50 | 3.13 |

log10 IC50 recorded for this compound, "COc1cccc(C(=O)N2[C@@H]3CCC[C@H]2c2nn(C)c(-c4cc(C(F)(F)F)n(C)n4)c2C3)c1C" , is 1.20

# credit: patent US11891387B2
